# System: GPR17+ cells (newly differentiated oligodendrocytes)
# Assay name: In vivo OPC differentiation, GPR17+ cells in brain
# Condition label: Mus musculus, po, 24 h, read-out: GPR17 Fold Induction (Over Vehicle)
Each entry below carries its recorded fold induction at 3 mg/kg.

{"columns": ["Molecule", "fold induction at 3 mg/kg"],
 "data": [
  ["CC1CN(c2cnn3cc(-c4cnn(C)c4)ccc23)CCN1C(=O)OC(C)(C)C (stereo not drawn) [Compound 238]", 1.54],
  ["CC(OC(=O)N1CCN(c2cnn3cc(-c4cnn(C)c4)ccc23)CC1)c1ccc(C(F)(F)F)c(F)c1 (stereo not drawn) [Compound 273]", 3.78],
  ["CC[C@@H](OC(=O)N1CCN(c2cnn3cc(-c4cnn(C)c4)ccc23)CC1)c1ccccc1 [Compound 80]", 1.64],
  ["C[C@@H](OC(=O)N1CCN(c2cnn3cc(-c4cnn(C)c4)cnc23)CC1)c1ccccc1 [Compound 73]", 1.77],
  ["C[C@H](OC(=O)N1CCN(c2cnn3cc(-c4cnn(C)c4)ccc23)CC1)c1ccc(Cl)cc1 [Compound 271]", 0.83],
  ["C[C@@H](NC(=O)N1CCN(c2cnn3cc(-c4cnn(C)c4)ccc23)CC1)c1ccc(Cl)cc1 [Compound 274]", 6.67],
  ["CCC(CC)C(O)c1cnc(N2CCN(c3cnn4cc(-c5cnn(C)c5)ccc34)CC2)nc1 (stereo not drawn) [Compound 177]", 2.37],
  ["C[C@@H](OC(=O)N1CCN(c2cnn3cc(-c4cnn(C)c4)ccc23)CC1)c1ccc(F)cc1 [Compound 77]", 8.64],
  ["C[C@@H](OC(=O)N1CCN(c2cnn3cc(-c4cnn(C)c4)ccc23)CC1)c1ccc(Cl)c(Cl)c1 [Compound 311]", 2.52],
  ["Cn1cc(-c2ccc3c(N4CCN(C(=O)NCc5ccccc5)CC4)cnn3c2)cn1 [Compound 161]", 1.81],
  ["Cn1cc(-c2ccc3c(N4CCN(c5ncc(C(O)C6CCOCC6)cn5)CC4)cnn3c2)cn1 (stereo not drawn) [Compound 69]", 1.09],
  ["C[C@@H](OC(=O)N1CCN(c2cnn3cc(-c4cnn(C)c4)ccc23)CC1)c1ccc(OC(F)(F)F)cc1 [Compound 268]", 7.02],
  ["Cn1cc(-c2ccc3c(N4CCN(c5ccc(Cc6ccccc6)nc5)CC4)cnn3c2)cn1 [Compound 151]", 1.73],
  ["Cn1cc(-c2ccc3c(N4CCN(C(=O)N5CCC[C@@H]5c5ccc(Cl)cc5)CC4)cnn3c2)cn1 [Compound 277]", 0.96],
  ["CC(OC(=O)N1CCN(c2cnn3cc(-c4cnn(C)c4)ccc23)CC1)c1ccc(Cl)cc1 (stereo not drawn) [Compound 265]", 7.92]
]}

----------
# Experimental target: UniProt P16234
# Sequence (P16234 24-1089): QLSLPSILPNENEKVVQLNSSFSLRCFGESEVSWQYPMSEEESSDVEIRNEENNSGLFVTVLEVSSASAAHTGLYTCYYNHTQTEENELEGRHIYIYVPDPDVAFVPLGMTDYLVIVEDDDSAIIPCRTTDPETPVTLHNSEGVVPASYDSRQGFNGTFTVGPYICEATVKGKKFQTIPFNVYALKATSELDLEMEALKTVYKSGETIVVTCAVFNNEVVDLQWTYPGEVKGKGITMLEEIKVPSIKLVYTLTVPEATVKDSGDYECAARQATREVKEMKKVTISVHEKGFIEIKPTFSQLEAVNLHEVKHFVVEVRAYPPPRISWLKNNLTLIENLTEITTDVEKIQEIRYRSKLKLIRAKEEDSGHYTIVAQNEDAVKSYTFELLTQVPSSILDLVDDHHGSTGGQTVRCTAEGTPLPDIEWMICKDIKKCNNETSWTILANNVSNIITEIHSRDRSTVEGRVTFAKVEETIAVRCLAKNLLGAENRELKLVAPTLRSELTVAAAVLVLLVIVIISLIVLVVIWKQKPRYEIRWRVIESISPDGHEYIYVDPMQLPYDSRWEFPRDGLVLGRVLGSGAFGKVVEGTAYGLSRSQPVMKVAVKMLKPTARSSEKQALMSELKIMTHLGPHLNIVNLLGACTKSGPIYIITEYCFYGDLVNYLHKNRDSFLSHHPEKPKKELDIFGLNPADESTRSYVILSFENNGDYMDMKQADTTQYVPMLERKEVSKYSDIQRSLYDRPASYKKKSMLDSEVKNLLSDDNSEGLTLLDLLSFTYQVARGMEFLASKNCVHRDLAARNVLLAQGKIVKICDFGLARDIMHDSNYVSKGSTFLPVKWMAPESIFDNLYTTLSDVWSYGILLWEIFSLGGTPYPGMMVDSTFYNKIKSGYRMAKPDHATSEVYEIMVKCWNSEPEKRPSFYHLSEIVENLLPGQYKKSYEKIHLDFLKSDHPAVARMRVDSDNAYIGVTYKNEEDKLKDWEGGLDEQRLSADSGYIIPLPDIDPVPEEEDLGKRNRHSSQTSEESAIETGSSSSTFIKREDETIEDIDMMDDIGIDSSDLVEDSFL
# Assay name: PDGFRα kinase enzyme assay (Promega PDGFRα Kinase Enzyme System, ADP-Glo)
# Type: biochemical
# Condition label: 11-point dose response, 10,000 nM to 0.169 nM; 150 uM ATP; BLQ = below limit of quantitation; read-out: IC50 Values on PDGFRα Kinase Inhibition, IC50
Each entry below carries its recorded IC50.
Readout type: IC50 (nM)

{"columns": ["Chemical smiles", "Experimental target", "Display unit", "Relation", "Recorded measurement"],
 "data": [
  ["Cn1cc(-c2ccc3c(N4CCN(C(=O)OCc5ccc(Cl)s5)CC4)cnn3c2)cn1", "UniProt P16234", "nM", "=", 522],
  ["C[C@@H](NS(=O)(=O)N1CCN(c2cnn3cc(-c4cnn(C)c4)ccc23)CC1)c1ccc(Cl)cc1", "UniProt P16234", "nM", "=", 5250],
  ["Cn1cc(-c2ccc3c(N4CCN(C(=O)OCc5ncc(Cl)s5)CC4)cnn3c2)cn1", "UniProt P16234", "nM", "=", 1230],
  ["Cc1cn(-c2ccn3c(N4CCCN(C(=O)OC(C)(C)C)CC4)cnc3n2)cn1", "UniProt P16234", "nM", ">", 10000]
]}

----------
Each entry below carries its recorded IC50.
# Experimental target: UniProt P16234
# Assay name: PDGFRα kinase enzyme assay (Promega PDGFRα Kinase Enzyme System, ADP-Glo)
# Format: biochemical
# Condition label: 11-point dose response, 10,000 nM to 0.169 nM; 150 uM ATP; BLQ = below limit of quantitation; read-out: IC50 Values on PDGFRα Kinase Inhibition, IC50

{"columns": ["Compound", "Display unit", "Relation", "IC50"],
 "data": [
  ["Cn1cc(-c2ccc3c(N4CCN(c5ncc(Cc6ccccc6)o5)CC4)cnn3c2)cn1", "nM", "=", 1780],
  ["CC(C)(C)OC(=O)N1CCN(c2cnn3cc(-c4cnn(C5CCOCC5)c4)ccc23)CC1", "nM", "=", 467],
  ["C[C@@H](OC(=O)N1CCN(c2cnn3cc(-c4cnn(C)c4)ccc23)CC1)c1ccc(Cl)c(Cl)c1", "nM", "=", 39.1],
  ["Cc1ccc(C(C)OC(=O)N2CCN(c3cnn4cc(-c5cnn(C)c5)ccc34)CC2)cn1 (centres unmarked)", "nM", "=", 17.3],
  ["Cn1cc(-c2ccc3c(N4CCN(c5ncc(Cc6ccco6)cn5)CC4)cnn3c2)cn1", "nM", "=", 1860],
  ["CCC(O)c1cnc(N2CCN(c3cnn4cc(-c5cnn(C)c5)ccc34)CC2)nc1 (centres unmarked)", "nM", "=", 2470],
  ["Cn1cc(-c2ccc3c(N4CCN(c5ncc(C(=O)C(F)(F)F)cn5)CC4)cnn3c2)cn1", "nM", ">", 10000],
  ["Cn1cc(-c2ccc3c(N4CCN(c5ncc(C(O)CCc6ccccc6)cn5)CC4)cnn3c2)cn1 (centres unmarked)", "nM", "=", 220],
  ["Cn1cc(-c2ccc3c(N4CCC(C(=O)OCc5ccccc5)CC4)cnn3c2)cn1", "nM", "=", 6970],
  ["Cn1cc(-c2ccc3c(N4CCN(c5cnc(Cc6ccccc6)cn5)CC4)cnn3c2)cn1", "nM", ">", 10000],
  ["Cn1cc(-c2ccc3c(N4CCN(c5ncc(Cc6ncon6)cn5)CC4)cnn3c2)cn1", "nM", ">", 10000],
  ["COCCn1cnc(-c2ccc3c(N4CCN(C(=O)OC(C)(C)C)CC4)cnn3c2)c1", "nM", "=", 268],
  ["Cn1cc(-c2ccc3c(N4CC5(CN(c6ncc(Cc7ccccc7)cn6)C5)C4)cnn3c2)cn1", "nM", ">", 10000],
  ["CCC(CC)OC(=O)N1CCN(c2cnn3cc(-c4cnn(C)c4)ccc23)CC1", "nM", "=", 283],
  ["CN1CCC(c2ccc3c(N4CCN(C(=O)OC(C)(C)C)CC4)cnn3c2)CC1", "nM", ">", 10000],
  ["Cn1cc(-c2ccc3c(C4CCC(C(=O)OCc5ccccc5)CC4)cnn3c2)cn1 (centres unmarked)", "nM", ">", 10000],
  ["Cn1cc(-c2ccc3c(N4CCN(c5ncc(Sc6ccccc6)cn5)CC4)cnn3c2)cn1", "nM", "=", 5100],
  ["Cn1cc(-c2ccc3c(N4CCN(C(=O)N5CCC[C@@H]5c5ccc(Cl)cc5)CC4)cnn3c2)cn1", "nM", "=", 208],
  ["Cn1cc(-c2ccc3c(C4=CCC(CCc5ccccc5)CC4)cnn3c2)cn1 (centres unmarked)", "nM", ">", 10000],
  ["Cn1cc(-c2ccc3c(N4CCNCC4)cnn3c2)cn1", "nM", ">", 10000],
  ["CN(CCN(C)c1cnc2nc(C3CCOC3)ccn12)C(=O)OC(C)(C)C (centres unmarked) [Compound 98]", "nM", ">", 10000],
  ["CN(Cc1ccccc1)C(=O)C1CCC(c2cnn3cc(-c4cnn(C)c4)ccc23)CC1 (centres unmarked)", "nM", "=", 8810],
  ["Cn1cc(-c2ccc3c(N4CCN(C(=O)OCc5csc(Cl)c5)CC4)cnn3c2)cn1", "nM", "=", 65.3],
  ["Cn1cc(-c2ccc3c(N4CCN(C(=O)OCCc5ccccc5)CC4)cnn3c2)cn1", "nM", "=", 998],
  ["C[C@@H](OC(=O)N1CCN(c2cnn3cc(-c4cnn(C)c4)ccc23)CC1)c1ccccc1F", "nM", "=", 97.2],
  ["C[C@@H](NC(=O)N1CCN(c2cnn3cc(-c4cnn(C)c4)ccc23)CC1)c1ccc(Cl)cc1", "nM", "=", 49],
  ["COc1cccc(Cc2cnc(N3CCN(c4cnn5cc(-c6cnn(C)c6)ccc45)CC3)nc2)c1", "nM", "=", 630],
  ["CCC(CC)Cc1cnc(N2CCN(c3cnn4cc(-c5cnn(C)c5)ccc34)CC2)nc1", "nM", "=", 1370],
  ["Cn1cc(-c2ccc3c(N4CC(c5ncc(Cc6ccccc6)cn5)C4)cnn3c2)cn1", "nM", "=", 2970],
  ["Cn1cc(-c2ccc3c(N4CCN(c5ncc(Cc6ccccn6)cn5)CC4)cnn3c2)cn1", "nM", "=", 80.4],
  ["Cn1cc(-c2cc3ncc(N4CCN(c5ncc(Cc6ccccc6)cn5)CC4)n3cn2)cn1", "nM", ">", 10000],
  ["Cn1cc(-c2ccc3c(N4CCN(c5ncc(CC6CCCCC6)cn5)CC4)cnn3c2)cn1", "nM", "=", 415]
]}
